B1: STEAP1 (parent)
chain: WMLTRKQFGLLSFFFAVLHAIYSL

# Variants of: B1
# PROTOCOL DESCRIPTION: protein stability index of a GFP-peptide fusion (GPS, HEK-293T) (PSI 1-6); higher = more stable;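 further: lentivirally expressed fusions sorted by FACS into six bins by GFP to DsRed ratio, PSI derived from sequencing read proportions per bin multiplied by bin number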
# RUN CONDITIONS: c terminus: a fixed tail appended
# protein stability index annotations
Enter a number only.

GET /values?readout=protein stability index&item= `T4G`
1.63

GET /values?readout=protein stability index&item= `H19A`
3.76

GET /values?readout=protein stability index&item= `L10G`
2

GET /values?readout=protein stability index&item= `L10N`
1.99

GET /values?readout=protein stability index&item= `S23Y`
2.37

GET /values?readout=protein stability index&item= `S23P`
1.89

GET /values?readout=protein stability index&item= `A16V`
1.51

GET /values?readout=protein stability index&item= `M2G`
1.46

GET /values?readout=protein stability index&item= `V17E`
2.34

GET /values?readout=protein stability index&item= `Y22H`
2.1

GET /values?readout=protein stability index&item= `H19N`
1.89

GET /values?readout=protein stability index&item= `G9L`
1.89
